test system: foxtail, giant; experiment: Test A preemergence; type: in vivo, Setaria faberi; conditions: 125 g ai/ha, visual injury after 10 days, 0 to 100 scale, 0 is no effect, 100 is complete control
reported.endpoint: Plant response rating, Foxtail, Giant
Numbers only.

These solved cases illustrate the format of a correct answer.
compound="Cc1cccc2c1O[C@@H](C)CN2C(=O)c1cccc(-n2cnc(C3CCCCC3)n2)c1 [Compound 82]" reported_endpoint="Plant response rating, Foxtail, Giant" assay_result=0
compound="C[C@H]1CN(C(=O)c2cc(-n3cncn3)ccc2C(F)(F)F)c2cccc(Cl)c2O1 [Compound 70]" reported_endpoint="Plant response rating, Foxtail, Giant" assay_result=20
compound="Cc1cc(F)cc2c1OC(C)CN2C(=O)c1cccc(-n2cncn2)c1 (centres unmarked) [Compound 44]" reported_endpoint="Plant response rating, Foxtail, Giant" assay_result=70
compound="CC(C)c1ncn(-c2cccc(C(=O)N3C[C@H](C)Oc4c(Cl)cccc43)c2)n1 [Compound 78]" reported_endpoint="Plant response rating, Foxtail, Giant" assay_result=100
compound="C[C@H]1CN(C(=O)c2cccc(-n3cnc(Br)n3)c2)c2cccc(Cl)c2O1 [Compound 85]" reported_endpoint="Plant response rating, Foxtail, Giant" assay_result=30
compound="CC1CN(C(=O)c2cc(F)cc(-n3cncn3)c2)c2cccc(Cl)c2O1 (centres unmarked) [Compound 37]" reported_endpoint="Plant response rating, Foxtail, Giant" assay_result=90
compound="C[C@H]1CN(C(=O)c2cccc(-n3cncn3)c2)c2cccc(OC(F)(F)F)c2O1 [Compound 48]" reported_endpoint="Plant response rating, Foxtail, Giant" assay_result=20

Moving on to the next compound.
May I ask what Plant response rating, Foxtail, Giant has been recorded for Cc1ccc(-n2cnc(C(C)C)n2)cc1C(=O)N1C[C@H](C)Oc2c(C)cccc21 [Compound 99] ?
100
